# credit: PubChem BioAssay (NCI)

Exercise: for every item that follows, state its recorded TGI.
Test system: MDA-N
Experiment: NCI tumour cell line growth inhibition, 48 h

### Prompt Value lookup for TGI; key = COP(=O)(OC)C(NC=O)P(=O)(OC)OC
### Response > 100 µM

### Prompt Value lookup for TGI; key = CC(=O)C12C[C@](C#N)(N3CCCCCC3)C1C=Cc1ccccc12 (some centres not stated)
### Response > 100 µM

### Prompt Value lookup for TGI; key = Cc1nn(C(=O)c2ccncc2)c2c1C(c1cccc([N+](=O)[O-])c1)SC(N)=N2 (configuration not stated)
### Response > 10 µM

### Prompt Value lookup for TGI; key = CCCCCn1c(=O)c2c(=O)[nH][nH]c2c2ccccc21
### Response > 100 µM

### Prompt Value lookup for TGI; key = CC1(C)CC2=C(Sc3ccccc3N2)C(=O)C1C(=O)C(=O)Nc1cc(Cl)ccc1Cl (configuration not stated)
### Response > 100 µM

### Prompt Value lookup for TGI; key = COc1ccc2c(c1)CC1Cc3ccccc3CCN1C2 (configuration not stated)
### Response > 100 µM

### Prompt Value lookup for TGI; key = Cc1cc(O)ccc1C1(c2ccc(F)cc2)OC(=O)c2ccccc21 (configuration not stated)
### Response 25 µM

###

Exercise: for every item that follows, state its recorded TGI.
Test system: HS 578T breast
Test: NCI tumour cell line growth inhibition, 48 h

### Prompt # get_value(readout= TGI, system= HS 578T breast) for COc1cc(C2CC(=O)Nc3c2cc(Br)c2ccccc32)cc(Br)c1OC (stereo unspecified)
### Response > 54.2 µM

### Prompt # get_value(readout= TGI, system= HS 578T breast) for COc1ccc(/C(=N/Nc2nc3ccccc3[nH]2)C(=O)O)cc1
### Response > 100 µM

### Prompt # get_value(readout= TGI, system= HS 578T breast) for CCOP(=O)(OCC)C1(O)CC(n2cc(C)c(=O)[nH]c2=O)OC1CO (stereo unspecified)
### Response > 100 µM

### Prompt # get_value(readout= TGI, system= HS 578T breast) for CCOC(=O)c1c(N2CCOCC2)[nH]c(=O)c(C(c2cccs2)c2c(O)c(C(=O)OCC)c(N3CCOCC3)[nH]c2=O)c1O
### Response > 100 µM

### Prompt # get_value(readout= TGI, system= HS 578T breast) for COc1ccc2c(c1)CC1Cc3ccccc3CCN1C2 (stereo unspecified)
### Response > 100 µM

### Prompt # get_value(readout= TGI, system= HS 578T breast) for COc1cc2c(c(OC)c1OC)-c1c(cc3c(c1OC)OCO3)CC(C)C(C)(O)C2OC(=O)c1ccccc1 (stereo unspecified)
### Response > 100 µM

###

System: UACC-257 melanoma
Test: NCI tumour cell line growth inhibition, 48 h
Assay readout: TGI

### Prompt # get_value(readout= TGI, system= UACC-257 melanoma) for Cc1nn(C(=O)c2ccncc2)c2c1C(c1cccc([N+](=O)[O-])c1)SC(N)=N2 (stereo not drawn)
### Response > 10 µM

### Prompt # get_value(readout= TGI, system= UACC-257 melanoma) for O=C1c2ccccc2-c2nc(-c3ccccc3)cc3c2c1nc1ccccc13
### Response 30.6 µM

### Prompt # get_value(readout= TGI, system= UACC-257 melanoma) for COc1cc(/C=N\NC(=O)C[N+](C)(C)C)cc(OC)c1OC
### Response > 10 µM

###

Exercise: for every item that follows, state its recorded TGI.
Tested on: CAKI-1 renal
Experiment: NCI tumour cell line growth inhibition, 48 h

### Prompt Value lookup for TGI; key = Nc1n[nH]c2ccc([C@@H]3Nc4cc5[nH]ncc5cc4[C@H]4C5CCC(C5)[C@@H]34)cc12 (stereo partly specified)
### Response > 39.2 µM

### Prompt Value lookup for TGI; key = CC(=O)NNc1nc(C)c(C(=O)/C=C/c2ccc(/C=C/C(=O)c3sc(NNC(C)=O)nc3C)cc2)s1
### Response > 100 µM

### Prompt Value lookup for TGI; key = Cc1ccc(Sc2oc(-c3ccc(C)cc3)nc2[P+](c2ccccc2)(c2ccccc2)c2ccccc2)cc1
### Response 1.06 µM

### Prompt Value lookup for TGI; key = O=C(N/N=C/c1ccc(Cl)cc1)c1cc(I)cc(I)c1O
### Response > 100 µM

### Prompt Value lookup for TGI; key = CCSc1nc(N)c(C#N)c(-c2ccco2)c1C#N
### Response 67.6 µM

### Prompt Value lookup for TGI; key = COc1ccc(Cc2nc3ccccc3s2)cc1OC
### Response 31.3 µM

###

Test system: HOP-92 NSCLC
Test: NCI tumour cell line growth inhibition, 48 h
Assay readout: TGI

### Prompt Value lookup for TGI; key = CC(=O)[CH-]C(=O)Nc1ccccc1.CC(=O)[CH-]C(=O)Nc1ccccc1.CC[O-].CC[O-].[Ti+4]
### Response > 100 µM

### Prompt Value lookup for TGI; key = CCOC1OC(=O)[C@H]2[C@@H]1[C@@H]1CC[C@H]2O1 (stereo not given in full)
### Response > 100 µM

### Prompt Value lookup for TGI; key = CC1=C(C(=O)Nc2ccc(F)c(Cl)c2)C(c2ccccc2O)NC(=O)N1 (stereo not given)
### Response > 100 µM

### Prompt Value lookup for TGI; key = Cc1nn(C)c2nc3ccc(Cl)cc3c(-c3ccccc3)c12
### Response > 100 µM

### Prompt Value lookup for TGI; key = Nc1ncnc2c1nnn2C1C=C(CO)C(O)C1O (stereo not given)
### Response > 80.2 µM

###

Exercise: for every item that follows, state its recorded TGI.
Test system: LOX IMVI melanoma
Experiment: NCI tumour cell line growth inhibition, 48 h
Answer in µM, number only, no unit symbol.

### Prompt Value lookup for TGI; key = Nc1ccc(C(=O)NN2C(=O)C(Cl)C2c2cccc(O)c2)cc1 (stereo unspecified)
### Response 16.2

### Prompt Value lookup for TGI; key = COc1ccc2c(-c3ccc(OCCN(C)C)cc3)c(Oc3ccc(Cl)cc3)c(=O)oc2c1
### Response 4.3

### Prompt Value lookup for TGI; key = Oc1c(Cl)cc(Cl)c2cccnc12
### Response 15.7

### Prompt Value lookup for TGI; key = C=C1CC[C@@H]2[C@](C)(COC(C)=O)[C@H](OC(C)=O)CC[C@@]2(C)[C@@H]1CC(Nc1ccc(S(=O)(=O)Nc2nccs2)cc1)C1=CCOC1=O (stereo partly specified)
### Response 3.31

### Prompt Value lookup for TGI; key = COc1cc(OC)cc(-c2n/c(=C\c3c(O)[nH]c4ccc(Cl)cc34)cc3c2=Nc2ccccc2-3)c1
### Response 4.34

### Prompt Value lookup for TGI; key = O=NN(CCCl)C(=O)NC1CCC(=O)NC1=O (stereo unspecified)
### Response 279

### Prompt Value lookup for TGI; key = CC(C)(C)c1cc(C(=O)/C=C/c2ccn[nH]2)cc(C(C)(C)C)c1O
### Response 3.48

### Prompt Value lookup for TGI; key = CN(C)Cc1cc(C(=O)/C=C/c2cccc(Cl)c2)cc(CN(C)C)c1O
### Response 10.9

### Prompt Value lookup for TGI; key = COc1cccc(C2C(C#N)=C(N)Oc3c2ccc2ccccc32)c1 (stereo unspecified)
### Response 10.8

###

System: SK-MEL-2 melanoma
Assay: NCI tumour cell line growth inhibition, 48 h
Assay readout: TGI (µM)
Answer in µM, number only, no unit symbol.

### Prompt Value lookup for TGI; key = Nc1ccc(C(=O)NN2C(=O)C(Cl)C2c2cccc(O)c2)cc1 (centres undefined)
### Response 30.5

### Prompt Value lookup for TGI; key = CCN(CC)CCC(CNc1c(C)cnc2cc(Cl)ccc12)c1ccc(Cl)cc1 (centres undefined)
### Response 14.1

### Prompt Value lookup for TGI; key = O=[N+]([O-])c1ccc2c(Nc3ccccc3-c3ccccc3Nc3c4ccccc4nc4cc([N+](=O)[O-])ccc34)c3ccccc3nc2c1
### Response 6.55

###

Tested on: OVCAR-5 ovarian
Test: NCI tumour cell line growth inhibition, 48 h
Assay readout: TGI (µM)
Answer in µM, number only, no unit symbol.

### Prompt Value lookup for TGI; key = COc1cc2c(cc1C)NC(=O)/C2=C\c1ccncc1
### Response 29.1

### Prompt Value lookup for TGI; key = O=c1[nH]c2cc3cccnc3c(Cl)c2nc1CBr
### Response 35.9

### Prompt Value lookup for TGI; key = S=C(N/N=C\c1ccccn1)N(Cc1ccccn1)Cc1ccccn1
### Response 63.9

### Prompt Value lookup for TGI; key = Cc1c2ccncc2c(C)c2c1c1cc(CO)ccc1n2C
### Response 0.984

### Prompt Value lookup for TGI; key = Clc1ccccc1NN(Cc1ccncc1)c1ccccc1Cl
### Response 38.4

### Prompt Value lookup for TGI; key = CCN1CCCC(Nc2cc(C)nc(/N=C(/N)Nc3ccc(Cl)c(Cl)c3)n2)C1 (centres undefined)
### Response 8.11

### Prompt Value lookup for TGI; key = Nc1ccc(C(=O)NN2C(=O)C(Cl)C2c2cccc(O)c2)cc1 (centres undefined)
### Response 41.9
